target: UniProt:Q92993; test: KAT-5 biochemical inhibition assay (SAMDI mass spectrometry)
Sequence (Q92993 other isoform, or with tags, fused parts or gaps): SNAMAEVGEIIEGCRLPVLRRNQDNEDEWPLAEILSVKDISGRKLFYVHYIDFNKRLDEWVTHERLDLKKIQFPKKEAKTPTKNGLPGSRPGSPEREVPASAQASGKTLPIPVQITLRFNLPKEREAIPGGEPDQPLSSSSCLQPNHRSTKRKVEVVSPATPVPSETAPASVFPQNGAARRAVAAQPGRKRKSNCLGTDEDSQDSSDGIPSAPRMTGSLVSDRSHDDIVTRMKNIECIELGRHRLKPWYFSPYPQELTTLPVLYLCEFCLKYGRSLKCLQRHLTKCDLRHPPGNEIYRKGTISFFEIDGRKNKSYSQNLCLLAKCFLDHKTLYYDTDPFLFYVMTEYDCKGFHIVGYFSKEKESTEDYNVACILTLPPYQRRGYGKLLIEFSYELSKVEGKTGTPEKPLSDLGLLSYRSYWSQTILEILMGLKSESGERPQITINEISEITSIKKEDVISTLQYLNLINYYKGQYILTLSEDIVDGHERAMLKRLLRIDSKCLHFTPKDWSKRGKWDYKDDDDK
Provide the recorded IC50 for the entries that follow.

# MOLECULE, MEASURED TARGET, IC50
records = [
    ("Cn1cnc(-c2cc(Cl)c(F)c(C(=O)NNS(=O)(=O)C[C@H]3C[C@@H](NC(=O)OC(C)(C)C)C3)c2)c1 [Compound I-114]", "UniProt:Q92993", "< 10 µM"),
    ("Cn1cnc(-c2cc(Cl)c(F)c(C(=O)NNS(=O)(=O)C[C@H]3CC[C@H](NC(=O)c4ccccc4)CC3)c2)c1 [Compound I-240]", "UniProt:Q92993", "< 10 µM"),
    ("Cn1cnc(-c2cc(Cl)c(F)c(C(=O)NNS(=O)(=O)CC3CCCCC3)c2)c1 [Compound I-51]", "UniProt:Q92993", "< 10 µM"),
    ("Cn1cnc(-c2cc(Cl)c(F)c(C(=O)NNS(=O)(=O)C[C@@H]3CCOC3)c2)c1 [Compound I-372]", "UniProt:Q92993", "< 10 µM"),
    ("Cc1cc(-c2cn(C)cn2)cc(C(=O)NNS(=O)(=O)Cc2ccccc2)c1F [Compound I-128]", "UniProt:Q92993", "10 to 50 µM"),
    ("Cn1cnc(-c2cc(Cl)c(F)c(C(=O)NNS(=O)(=O)C[C@H]3C[C@H](N)C3)c2)c1 [Compound I-123]", "UniProt:Q92993", "10 to 50 µM"),
]

List reported IC50 for each of these molecules:
1. Cc1nn(C)c(C)c1-c1cc(Cl)c(F)c(C(=O)NNS(=O)(=O)CC2CCOCC2)c1 [Compound I-58]
2. Cc1cc(-c2cn(C(C)C)cn2)cc(C(=O)NNS(=O)(=O)C2CCCCC2)c1F [Compound I-139]
3. Cn1cnc(-c2cc(Cl)c(F)c(C(=O)NNS(=O)(=O)C[C@H]3CC[C@H](NC(=O)c4cccnc4)CC3)c2)c1 [Compound I-241]
4. CCNC(=O)N[C@@H]1CCC[C@@H](CS(=O)(=O)NNC(=O)c2cc(-c3cn(C)cn3)cc(Cl)c2F)C1 [Compound I-355]

A.
["> 100 µM", "10 to 50 µM", "< 10 µM", "< 10 µM"]

List reported IC50 for each of these molecules:
1. Cn1cnc(-c2cc(Cl)c(F)c(C(=O)NNS(=O)(=O)CC3CCC3)c2)c1 [Compound I-31]
2. Cn1cnc(-c2cc(Cl)c(F)c(C(=O)NNS(=O)(=O)C[C@H]3CC[C@H](NC(=O)Cc4ccncc4)CC3)c2)c1 [Compound I-254]

A.
< 10 µM
< 10 µM

List reported IC50 for each of these molecules:
1. Cn1cnc(-c2cc(Cl)c(F)c(C(=O)NNS(=O)(=O)CC3CCCC(NC(=O)c4ccccn4)C3)c2)c1 (centres unmarked) [Compound I-234]
2. Cn1cnc(-c2cc(Cl)c(F)c(C(=O)NNS(=O)(=O)CC3CCC4CCC3N4C(=O)OC(C)(C)C)c2)c1 (centres unmarked) [Compound I-250]
3. Cn1cnc(-c2cc(Cl)c(F)c(C(=O)NNS(=O)(=O)c3ccccn3)c2)c1 [Compound I-330]

A.
["< 10 µM", "< 10 µM", "< 10 µM"]

List reported IC50 for each of these molecules:
1. Cn1cnc(-c2cc(Cl)c(F)c(C(=O)NNS(=O)(=O)CC3CCCC(NC(=O)c4cccnc4)C3)c2)c1 (centres unmarked) [Compound I-236]
2. CCC(=O)N(C)C1CCCC(CS(=O)(=O)NNC(=O)c2cc(-c3cn(C)cn3)cc(Cl)c2F)C1 (centres unmarked) [Compound I-294]
3. Cc1ncc(-c2cc(Cl)c(F)c(C(=O)NNS(=O)(=O)CC3CCCCC3)c2)n1C [Compound I-29]
4. COc1ccc(CNC(=O)NC2CCC(CS(=O)(=O)NNC(=O)c3cc(-c4cn(C)cn4)cc(Cl)c3F)CC2)cc1 (centres unmarked) [Compound I-177]
5. Cn1cnc(-c2cc(Cl)c(F)c(C(=O)NNS(=O)(=O)C3CCCCC3)c2)c1 [Compound I-2]
6. Cn1cnc(-c2cc(C(=O)NNS(=O)(=O)CC3CCCCC3)c(F)c(Cl)c2N(C(=O)OC(C)(C)C)C(=O)OC(C)(C)C)c1 [Compound I-475]
7. Cn1cnc(-c2cc(Cl)c(F)c(C(=O)NNS(=O)(=O)CC(=O)N3CCCC3)c2)c1 [Compound I-328]
8. Cn1cnc(-c2cc(Cl)c(F)c(C(=O)NNS(=O)(=O)C[C@H]3CC[C@@H](N(C)C(=O)OC(C)(C)C)CC3)c2)c1 [Compound I-331]

A.
< 10 µM
< 10 µM
10 to 50 µM
< 10 µM
< 10 µM
> 100 µM
10 to 50 µM
< 10 µM
